Where do these numbers come from? They come from BigSolDB 2.1.

condition context: in n-pentyl acetate, 293.15 K
quantity kind: solubility (mole fraction)

Q: Look up solubility (mole fraction) for this molecule: `COC(=O)c1cc(OC)c2c(c1-c1c(C(=O)OC)cc(OC)c3c1OCO3)OCO2`
Result: 0.0011

----------
condition context: in n-butyl acetate, 293.15 K
quantity kind: solubility (mole fraction)
One number for each entry.

Q: Bench note: what solubility (mole fraction) did `COC(=O)c1cc(OC)c2c(c1-c1c(C(=O)OC)cc(OC)c3c1OCO3)OCO2` show?
Result: 0.00137

----------
condition context: in acetone, 313.15 K
quantity kind: solubility (mole fraction)
One number for each entry.

Q: Please look up its solubility (mole fraction): `COC(=O)c1cc(OC)c2c(c1-c1c(C(=O)OC)cc(OC)c3c1OCO3)OCO2`
Result: 0.0104
